- Tested on: Staphylococcus aureus
- assay-explanation: Antibacterial activity against ciprofloxacin-susceptible Staphylococcus aureus OC4172 by broth microdilution method
- Format: functional
measured-attribute: MIC (µg/mL)
The reply should be a number in µg/mL, with the unit left off.

[in] Notebook: pull reported MIC for Staphylococcus aureus, entry "NCC=C1CCN(c2nc3c(cc2F)c(=O)c(C(=O)O)cn3C2CC2)CC1"
[out] 0.12

[in] Item CC(CN)=C1CCN(c2c(F)cc3c(=O)c(C(=O)O)cn4c3c2OCC4C)CC1 (racemic) with Staphylococcus aureus - MIC?
[out] 0.5

[in] Return MIC measured with Staphylococcus aureus given this molecule: "COc1c(N2CCC(=C(F)CN)CC2)c(F)cc2c(=O)c(C(=O)O)cn(C3CC3)c12"
[out] 0.03

[in] Query the reported MIC for Staphylococcus aureus; item: "COc1c(N2CCC(=C(C)CN)CC2)c(F)cc2c(=O)c(C(=O)O)cn(C3CC3)c12"
[out] 0.03

[in] Query for Staphylococcus aureus: what MIC does the record show for "NCC(F)=C1CCN(c2cc3c(cc2F)c(=O)c(C(=O)O)cn3C2CC2)CC1" ?
[out] 0.03

[in] Quick check: MIC on Staphylococcus aureus, item "NCC(Cl)=C1CCN(c2cc3c(cc2F)c(=O)c(C(=O)O)cn3C2CC2)CC1" ?
[out] 0.03

[in] Tell me reported MIC for "O=C(O)c1cn(C2CC2)c2cc(N3CCNCC3)c(F)cc2c1=O" , tested with Staphylococcus aureus.
[out] 0.12

[in] Provide value of MIC for this record tested with Staphylococcus aureus: "NCC(Cl)=C1CCN(c2c(F)cc3c(=O)c(C(=O)O)cn(C4CC4)c3c2OC(F)F)CC1"
[out] 0.06
